Data origin: PubChem BioAssay (NCI)

System: HS 578T breast
Assay: NCI-60 one-dose screen, 48 h (100 = growth as untreated, 0 = no growth, -100 = all killed)
Conditions: 10 µM unless noted
About 83,000 compounds went through this panel and 20% of them were active in at least one assay; those are over-represented in the sample as a whole.
Give growth for every item shown.
Answer format: numeric, % implied, no suffix.

Please look up its growth: COc1cccc(-c2nc3sccn3c2-c2ccnc(NCCNS(=O)(=O)c3cccc(F)c3)c2)c1
27.9

Please look up its growth: Clc1cc(Cl)cc(Nc2ccc3cc(OCCCN4CCOCC4)ccc3n2)c1
25

Please look up its growth: CCc1c2c(nc3ccc(OC(=O)NCc4ccc(B5OC(C)(C)C(C)(C)O5)cc4)cc13)-c1cc3c(c(=O)n1C2)COC(=O)[C@]3(O)CC
23.4

Please look up its growth: COc1ccc(-c2nc3sccn3c2-c2cc(-c3cc(OC)c(OC)c(OC)c3)on2)cc1
92.5

Please look up its growth: COc1cc(/C=C/C(=O)N2CCN(C(=O)c3cc(OC)c(OC)c(OC)c3)CC2)ccc1OCCCN1C(=O)c2cccc3cccc(c23)C1=O
38.6

Please look up its growth: COc1cc2nc(Cl)nc(Nc3ccc(S(=O)(=O)Nc4nccs4)cc3)c2cc1OC
99.5

Please look up its growth: COc1cccc(-c2nn(-c3ccccc3)cc2-c2ccnc(NCCCNC(=O)Nc3ccc(Cl)c(Cl)c3)c2)c1
-26.1

Please look up its growth: CN(C)c1ccc(/C=C/C(=O)c2cccc(Nc3nc(Nc4ccccc4)nc(Nc4ccccc4)n3)c2)cc1
78.9
